Assay: Solubility of the compound in simulated gastric fluid
Assay type: physicochemical

| mol | measurement_unit | solubility |
| --- | --- | --- |
| COc1nnc2sc(C(=O)NC3CN(c4ncc(C(F)(F)F)cn4)C3)c(N)c2c1C | µM | 15 |

###

Experiment: Volume of distribution at steady state in cynomolgus monkey
Format: ADME, Macaca fascicularis
Conditions: in vivo, read-out: Vdss

| mol | Vd / L/kg |
| --- | --- |
| COc1nnc2sc(C(=O)NC3CN(c4ncc(C(F)(F)F)cn4)C3)c(N)c2c1C | 0.74 |

###

Assay: Plasma clearance in rat
Assay type: ADME
Conditions: read-out: CL(app)
measure: clearance

| mol | measure | reported |
| --- | --- | --- |
| COc1nnc2sc(C(=O)NC3CN(c4ncc(C(F)(F)F)cn4)C3)c(N)c2c1C | clearance | 7.7 mL/min/kg |

###

Molecular target: L-type calcium channel Cav1.2, dihydropyridine binding site (Rattus norvegicus, UniProt P22002)
Sequence (P22002 whole entry): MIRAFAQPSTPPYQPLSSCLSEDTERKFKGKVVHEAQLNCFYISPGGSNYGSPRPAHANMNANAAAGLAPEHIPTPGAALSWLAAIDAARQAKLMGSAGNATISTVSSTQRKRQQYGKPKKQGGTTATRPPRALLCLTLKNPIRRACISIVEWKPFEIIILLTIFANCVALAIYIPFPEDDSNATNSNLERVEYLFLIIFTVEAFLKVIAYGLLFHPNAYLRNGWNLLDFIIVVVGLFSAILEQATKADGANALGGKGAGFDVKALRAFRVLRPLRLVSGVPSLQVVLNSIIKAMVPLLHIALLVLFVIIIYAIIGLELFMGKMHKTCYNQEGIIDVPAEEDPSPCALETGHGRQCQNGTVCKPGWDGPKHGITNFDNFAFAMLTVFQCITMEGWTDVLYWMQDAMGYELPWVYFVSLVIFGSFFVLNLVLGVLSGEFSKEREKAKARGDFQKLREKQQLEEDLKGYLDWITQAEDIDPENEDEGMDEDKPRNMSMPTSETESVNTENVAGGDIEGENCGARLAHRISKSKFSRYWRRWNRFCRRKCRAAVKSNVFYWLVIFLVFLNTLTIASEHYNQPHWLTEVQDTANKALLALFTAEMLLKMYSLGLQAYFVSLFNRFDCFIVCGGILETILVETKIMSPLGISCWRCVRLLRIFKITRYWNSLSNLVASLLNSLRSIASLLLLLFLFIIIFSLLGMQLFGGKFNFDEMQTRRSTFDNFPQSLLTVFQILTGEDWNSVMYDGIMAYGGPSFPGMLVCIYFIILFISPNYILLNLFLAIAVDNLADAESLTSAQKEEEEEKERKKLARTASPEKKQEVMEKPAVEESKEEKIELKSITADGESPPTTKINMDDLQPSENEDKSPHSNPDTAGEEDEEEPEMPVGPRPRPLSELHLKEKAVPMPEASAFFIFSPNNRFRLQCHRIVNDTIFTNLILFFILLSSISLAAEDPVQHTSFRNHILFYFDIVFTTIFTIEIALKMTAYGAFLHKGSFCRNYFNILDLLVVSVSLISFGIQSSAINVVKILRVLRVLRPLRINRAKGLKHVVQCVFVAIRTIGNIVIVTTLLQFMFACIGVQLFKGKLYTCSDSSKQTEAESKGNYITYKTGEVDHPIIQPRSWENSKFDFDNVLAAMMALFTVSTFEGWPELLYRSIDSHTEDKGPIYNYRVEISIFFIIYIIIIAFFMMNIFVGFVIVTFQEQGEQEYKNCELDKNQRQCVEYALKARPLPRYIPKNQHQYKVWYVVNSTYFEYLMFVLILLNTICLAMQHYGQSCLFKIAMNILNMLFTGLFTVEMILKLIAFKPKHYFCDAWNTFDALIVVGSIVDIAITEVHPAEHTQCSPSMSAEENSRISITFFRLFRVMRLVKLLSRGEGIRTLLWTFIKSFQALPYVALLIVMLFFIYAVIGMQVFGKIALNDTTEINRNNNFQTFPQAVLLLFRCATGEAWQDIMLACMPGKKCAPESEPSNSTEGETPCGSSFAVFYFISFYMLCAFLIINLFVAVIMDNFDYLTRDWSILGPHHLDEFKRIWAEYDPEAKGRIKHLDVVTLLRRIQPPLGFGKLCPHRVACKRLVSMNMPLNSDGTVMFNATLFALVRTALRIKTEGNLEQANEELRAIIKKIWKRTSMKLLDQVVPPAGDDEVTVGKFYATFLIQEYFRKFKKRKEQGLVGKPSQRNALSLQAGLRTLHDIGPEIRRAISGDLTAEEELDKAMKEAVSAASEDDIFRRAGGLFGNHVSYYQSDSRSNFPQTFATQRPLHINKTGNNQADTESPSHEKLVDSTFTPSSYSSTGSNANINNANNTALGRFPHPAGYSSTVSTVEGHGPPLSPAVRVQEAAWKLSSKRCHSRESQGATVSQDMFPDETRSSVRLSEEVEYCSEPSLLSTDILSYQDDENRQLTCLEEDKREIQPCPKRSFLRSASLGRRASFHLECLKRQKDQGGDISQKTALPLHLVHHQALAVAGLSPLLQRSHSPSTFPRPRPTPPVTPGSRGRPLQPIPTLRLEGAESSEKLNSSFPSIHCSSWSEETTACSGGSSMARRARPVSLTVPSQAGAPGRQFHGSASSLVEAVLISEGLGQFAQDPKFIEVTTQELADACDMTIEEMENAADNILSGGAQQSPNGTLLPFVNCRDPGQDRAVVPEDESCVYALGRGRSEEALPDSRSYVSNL
Assay: Displacement of [3H]-Nitrendipine from L-type calcium channel Cav1.2 dihydropyridine binding site in Wistar rat brain assessed as residual binding level for radioligand at 10 uM incubated for 90 mins by radiometric scintillation analysis relative to control
Assay type: tissue-based
Settings: probe [3H]-Nitrendipine, read-out: Activity

| mol | activity at 1.5 h, 10 µM |
| --- | --- |
| COc1nnc2sc(C(=O)NC3CN(c4ncc(C(F)(F)F)cn4)C3)c(N)c2c1C | > 50% |

###

System: P-gp
Test: Substrate activity at human P-gp expressed in MDCK-MDR1 cells assessed as efflux ratio
Type: ADME, cell-based
A collection of compounds and their measured efflux ratio
measure: efflux ratio

| mol | measure | reported |
| --- | --- | --- |
| Cc1nnc2sc(C(=O)NC3CN(c4ncc(C(F)(F)F)cn4)C3)c(N)c2c1C | efflux ratio | 4 |
| COc1nnc2sc(C(=O)NC3CN(c4ncc(C(F)(F)F)cn4)C3)c(N)c2c1C | efflux ratio | 1.6 |
| Cc1c(C(F)F)nnc2sc(C(=O)NC3CN(c4ncc(C(F)(F)F)cn4)C3)c(N)c12 | efflux ratio | 3 |

###

Target: L-type calcium channel Cav1.2, benzothiazepine binding site (Rattus norvegicus)
Sequence (P22002 whole entry): as above
Test: Displacement of [3H]-Diltiazem from L-type calcium channel Cav1.2 benzothiazepine binding site in Wistar rat brain membrane assessed as residual binding level for radioligand at 10 uM incubated for 180 mins by radiometric scintillation analysis relative to control
Format: cell membranes
Conditions: probe [3H]-Diltiazem, read-out: Activity

| mol | activity at 3 h, 10 µM |
| --- | --- |
| COc1nnc2sc(C(=O)NC3CN(c4ncc(C(F)(F)F)cn4)C3)c(N)c2c1C | > 50% |

###

Molecular target: Muscarinic acetylcholine receptor M1 (Homo sapiens) (UniProt P11229)
Sequence (whole entry): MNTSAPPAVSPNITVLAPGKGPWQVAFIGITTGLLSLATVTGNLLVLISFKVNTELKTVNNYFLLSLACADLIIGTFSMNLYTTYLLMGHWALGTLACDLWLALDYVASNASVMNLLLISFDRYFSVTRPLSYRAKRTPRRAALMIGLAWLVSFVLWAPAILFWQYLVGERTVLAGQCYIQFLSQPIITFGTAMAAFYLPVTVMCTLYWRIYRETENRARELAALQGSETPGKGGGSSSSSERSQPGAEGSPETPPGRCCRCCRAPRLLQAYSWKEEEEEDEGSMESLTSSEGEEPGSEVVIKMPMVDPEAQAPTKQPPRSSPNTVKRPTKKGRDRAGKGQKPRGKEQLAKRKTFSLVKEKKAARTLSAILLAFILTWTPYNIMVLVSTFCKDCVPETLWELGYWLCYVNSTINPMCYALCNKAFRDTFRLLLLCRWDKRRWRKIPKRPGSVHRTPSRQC
Test: Positive allosteric modulation of human M1 receptor
The source made the active and inactive calls. The rule behind the calls is not given here.

| mol | Activity |
| --- | --- |
| Cc1c(Cl)nnc2sc(C(=O)NC3CN(c4nnc(CC(C)C)o4)C3)c(N)c12 | inactive |
| Cc1c(Cl)nnc2sc(C(=O)NC3CN(c4ncc(C(F)(F)F)cn4)C3)c(N)c12 | inactive |
| Cc1c(C(C)C)nnc2sc(C(=O)NC3CN(c4ncc(C(F)(F)F)cn4)C3)c(N)c12 | inactive |
| Cc1c(Cl)nnc2sc(C(=O)NC3CN(c4cc(C(F)(F)F)ncc4Cl)C3)c(N)c12 | inactive |
| Cc1c(O)nnc2sc(C(=O)NC3CN(c4ncc(C(F)(F)F)cn4)C3)c(N)c12 | inactive |
| COc1cc(N2CC(NC(=O)c3sc4nnc(Cl)c(C)c4c3N)C2)c(Cl)cn1 | inactive |
| Cc1cc(C2CC2)ncc1N1CC(NC(=O)c2sc3nnc(Cl)c(C)c3c2N)C1 | inactive |
| Cc1c(Cl)nnc2sc(C(=O)NC3CN(c4ccnc(F)c4Cl)C3)c(N)c12 | inactive |
| Cc1c(Cl)nnc2sc(C(=O)NC3CN(c4cc(Cl)ncc4Cl)C3)c(N)c12 | inactive |
| Cc1c(Cl)nnc2sc(C(=O)NC3CN(c4ncncc4C#N)C3)c(N)c12 | inactive |
| Cc1c(CF)nnc2sc(C(=O)NC3CN(c4ncc(C(F)(F)F)cn4)C3)c(N)c12 | inactive |
| Cc1c(Cl)nnc2sc(C(=O)NC3CN(c4ccc(C5CC5)nn4)C3)c(N)c12 | inactive |
| Cc1nnc2sc(C(=O)NC3CN(c4ncc(C(F)(F)F)cn4)C3)c(N)c2c1C | inactive |
| Cc1c(C(F)F)nnc2sc(C(=O)NC3CN(c4ncc(C(F)(F)F)cn4)C3)c(N)c12 | inactive |
| Cc1c(CO)nnc2sc(C(=O)NC3CN(c4ncc(C(F)(F)F)cn4)C3)c(N)c12 | inactive |
| Cc1c(CN(C)C)nnc2sc(C(=O)NC3CN(c4ncc(C(F)(F)F)cn4)C3)c(N)c12 | inactive |
| Cc1nc(Cl)c(C)c(N2CC(NC(=O)c3sc4nnc(Cl)c(C)c4c3N)C2)n1 | inactive |
| Cc1c(Cl)nnc2sc(C(=O)NC3CN(c4cccnc4)C3)c(N)c12 | inactive |
| CCc1nnc2sc(C(=O)NC3CN(c4ncc(C(F)(F)F)cn4)C3)c(N)c2c1C | inactive |
| COCCOc1nnc2sc(C(=O)NC3CN(c4ncc(C(F)(F)F)cn4)C3)c(N)c2c1C | inactive |
| Cc1c(Cl)nnc2sc(C(=O)NC3CN(c4cnc(Cl)cn4)C3)c(N)c12 | inactive |

###

Experiment: Volume of distribution at steady state in dog
Format: ADME, Canis lupus familiaris
Settings: in vivo, read-out: Vdss

| mol | measurement_unit | Vd |
| --- | --- | --- |
| COc1nnc2sc(C(=O)NC3CN(c4ncc(C(F)(F)F)cn4)C3)c(N)c2c1C | L/kg | 0.57 |

###

Test: Fraction unbound in rat brain
Assay type: ADME, tissue-based
Tag: satisfied if measured fraction unbound is not below 0.04, not satisfied if it is.

| mol | category_label |
| --- | --- |
| COc1cc(N2CC(NC(=O)c3sc4nnc(Cl)c(C)c4c3N)C2)c(Cl)cn1 | not satisfied |
| Cc1nnc2sc(C(=O)NC3CN(c4ncc(C(F)(F)F)cn4)C3)c(N)c2c1C | satisfied |
| Cc1c(Cl)nnc2sc(C(=O)NC3CN(c4ncc(C(F)(F)F)cn4)C3)c(N)c12 | not satisfied |
| Cc1c(CF)nnc2sc(C(=O)NC3CN(c4ncc(C(F)(F)F)cn4)C3)c(N)c12 | satisfied |
| Cc1c(C(F)F)nnc2sc(C(=O)NC3CN(c4ncc(C(F)(F)F)cn4)C3)c(N)c12 | satisfied |
| Cc1c(Cl)nnc2sc(C(=O)NC3CN(c4cc(C(F)(F)F)ncc4Cl)C3)c(N)c12 | not satisfied |

###

Target: UniProt:P08911
Sequence (P08911 whole entry): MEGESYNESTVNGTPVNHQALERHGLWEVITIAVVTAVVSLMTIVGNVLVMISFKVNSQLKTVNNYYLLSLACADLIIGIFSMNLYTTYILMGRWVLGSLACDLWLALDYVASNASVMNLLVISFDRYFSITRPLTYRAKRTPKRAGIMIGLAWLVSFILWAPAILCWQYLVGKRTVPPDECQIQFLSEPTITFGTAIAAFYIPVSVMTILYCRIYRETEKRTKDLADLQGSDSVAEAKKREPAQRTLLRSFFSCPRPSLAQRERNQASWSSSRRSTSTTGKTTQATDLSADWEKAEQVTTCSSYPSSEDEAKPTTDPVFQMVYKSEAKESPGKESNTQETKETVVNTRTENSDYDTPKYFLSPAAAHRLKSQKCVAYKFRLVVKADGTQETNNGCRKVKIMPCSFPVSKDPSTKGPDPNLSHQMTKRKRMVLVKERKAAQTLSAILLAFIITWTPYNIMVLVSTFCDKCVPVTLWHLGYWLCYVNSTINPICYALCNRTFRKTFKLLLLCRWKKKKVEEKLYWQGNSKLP
Assay: Positive allosteric modulation of rat M5 receptor

| mol | EC50 |
| --- | --- |
| COc1nnc2sc(C(=O)NC3CN(c4ncc(C(F)(F)F)cn4)C3)c(N)c2c1C | > 30 µM |
